Reference source: patent US10828372B2

# Assay Info: Fluorescence imaging (IVIS) of subcutaneous dose absorption
# Format: in vivo, mouse
# Condition Label: s.c. 12.5 mg/kg FUD equivalents, 24 hours
Where no end group is shown, it is not given here. PEG10kDa = 10 kDa linear methoxy-PEG propionaldehyde on the N-terminus; PEG20kDa = 20 kDa linear methoxy-PEG propionaldehyde on the N-terminus
The substances listed here are annotated with their % dose remaining at the site of injection after 24 hours.
Metric Name: % dose remaining at the site of injection after 24 hours (%)

Substance	Observed Result
10 kDa PEG-FUD: FUD N-terminally mono-PEGylated with 10 kDa linear methoxy-PEG propionaldehyde (PEG10kDa-KDQSPLAGESGETEYITEVYGNQQNPVDIDKKLPNETGFSGNMVETEDT)	1.2
40 kDa PEG-FUD: FUD N-terminally mono-PEGylated with 40 kDa branched methoxy-PEG propionaldehyde ({mPEG 40 kDa branched}-KDQSPLAGESGETEYITEVYGNQQNPVDIDKKLPNETGFSGNMVETEDT)	7.9
FUD: 49 amino acid FUD peptide, SEQ ID NO: 1, recombinantly expressed, His-tag removed; inhibitor of fibronectin fibrillogenesis (KDQSPLAGESGETEYITEVYGNQQNPVDIDKKLPNETGFSGNMVETEDT; human) [reference compound]	0.3
20 kDa PEG-FUD: FUD N-terminally mono-PEGylated with 20 kDa linear methoxy-PEG propionaldehyde (PEG20kDa-KDQSPLAGESGETEYITEVYGNQQNPVDIDKKLPNETGFSGNMVETEDT)	3.5
